- TGT: Dual specificity tyrosine-phosphorylation-regulated kinase 1A (Homo sapiens)
- ASSAY_REMARKS: Inhibition of recombinant DYRK1A (unknown origin) using Ser/Thr 18 peptide as substrate incubated for 1 hr in presence of ATP by FRET assay
pEC50: −log10 of the molar value.
Criterion: pEC50 meeting or surpassing 8. Met: 1 (yes). Not met: 0 (no).

1) c1cncc(-c2ccc3[nH]nc(-c4nc5c(-c6cccnc6)cncc5[nH]4)c3c2)c1
0 (no)

Query string: Say whether `CO[C@H]1CC[C@H](C(=O)Nc2cc3cc(-c4cnn(C)c4CN4CCCCC4)ccc3cn2)CC1` shows pEC50 of 8 or more.
Result string: 1 (yes)

Query string: Reported pEC50 reaches at least 8 for `CC(C)(C)CC(=O)Nc1cncc(-c2cc3c(-c4cc5c(-c6ccccc6F)nccc5[nH]4)n[nH]c3cn2)c1` ?
Result string: 0 (no)

Query string: Does the reported pEC50 for `CN1CCC(Oc2ccc(NC(=O)c3n[nH]cc3/C=C/c3cccnc3)cn2)CC1` fall at or above the 8 mark?
Result string: 1 (yes)

Query string: # check: pEC50 of `Oc1cncc(-c2ccc3[nH]nc(-c4nc5c(-c6cccc(F)c6)cncc5[nH]4)c3n2)c1` is greater than or equal to 8
Result string: 0 (no)

Query string: # bool: pEC50 of `O=C(Nc1cccnc1)c1n[nH]c2ccc(-c3cncc(CN4CC(CO)(CO)C4)c3)cc12` >= 8
Result string: 1 (yes)

Query string: Hello, I need to know if `CN(C)c1cncc(-c2ccc3[nH]nc(-c4nc5c(-c6cccs6)cncc5[nH]4)c3n2)c1` has measured pEC50 not below 8. Thanks!
Result string: 0 (no)

Query string: Hi, just wondering whether `Cc1ccc(-c2cccc3[nH]c(-c4n[nH]c5ccc(-c6cncc(N)c6)nc45)nc23)s1` shows pEC50 of 8 or higher.
Result string: 0 (no)

Query string: pEC50 >= 8 for `CC(C)Nc1cncc(-c2ccc3[nH]nc(-c4cc5c(-c6cccnc6)ccnc5[nH]4)c3c2)c1` ?
Result string: 0 (no)
